Source: patent US20090203709A1

assay: Study M04-710 pharmacokinetics, multiple-dose escalation, non-hematologic malignancies; type: in vivo, human; settings: human, plasma, oral; Study Day 1; 0.25 mg/kg; mean ± SD
Metric: half-life (h)
Give the quantity in h, number only.

(Q) Sample `Cc1ccc(F)c(NC(=O)Nc2ccc(-c3cccc4[nH]nc(N)c34)cc2)c1` — what was its half-life?
(A) 18.9

====

Assay: Study M04-710 pharmacokinetics, multiple-dose escalation, non-hematologic malignancies
Format: in vivo, human
Conditions: human, plasma, oral, 0.3 mg/kg; Study Day 1; 0.30 mg/kg; mean ± SD
Experimental: In study M04-710, blood samples for pharmacokinetic analysis were collected on Days 1 and 15 at the following times: 0 (pre-dose), 0.5, 1, 2, 3, 4, 6, 8, and 24 h (Day 1 only). In study M05-756, blood samples for pharmacokinetic analysis were collected on Days 1 and 8 at the following times: 0 (pre-dose), 0.5, 1, 2, 3, 4, 6, 8, and 24 h (Day 1 only). […] Plasma and urine concentrations of ABT-869 were determined under the supervision of the Drug Analysis Department at Abbott using LCMS/MS. […]
Metric: Tmax
The reply should read as a number followed by its unit.

(Q) Sample `Cc1ccc(F)c(NC(=O)Nc2ccc(-c3cccc4[nH]nc(N)c34)cc2)c1` — what was its Tmax?
(A) 2 h
